test_target: human C5 (human, UniProt P01031 19-1676)
assay_protocol: cell-based or functional assay
measurement_type: IC50, inhibition of CDC of Daudi cells, 1.66% human serum (nM)
Kindly answer with a numeric value in nM, unit omitted.

Guide cases for IC50, inhibition of CDC of Daudi cells, 1.66% human serum, answers given:
>>> observed_value("H4H12161P (antibody, human IgG4, V domains shown, H4H: human IgG4 Fc with S108P hinge mutation) VH: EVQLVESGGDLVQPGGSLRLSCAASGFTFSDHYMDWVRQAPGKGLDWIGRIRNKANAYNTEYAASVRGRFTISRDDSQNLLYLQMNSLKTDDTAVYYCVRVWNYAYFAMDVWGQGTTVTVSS VL: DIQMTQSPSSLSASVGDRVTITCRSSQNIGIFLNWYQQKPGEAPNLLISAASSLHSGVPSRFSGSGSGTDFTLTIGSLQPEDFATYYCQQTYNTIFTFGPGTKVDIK")
2.4
>>> observed_value("H4H12159P (antibody, human IgG4, V domains shown, H4H: human IgG4 Fc with S108P hinge mutation) VH: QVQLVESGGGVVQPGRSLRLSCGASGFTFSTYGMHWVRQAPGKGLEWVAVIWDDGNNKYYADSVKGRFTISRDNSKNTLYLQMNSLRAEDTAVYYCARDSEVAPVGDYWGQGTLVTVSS VL: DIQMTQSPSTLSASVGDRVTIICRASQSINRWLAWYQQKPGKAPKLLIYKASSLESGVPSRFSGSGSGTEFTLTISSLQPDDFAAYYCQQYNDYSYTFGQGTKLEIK")
3.2

Shifting focus to the binder that follows.
Reported IC50, inhibition of CDC of Daudi cells, 1.66% human serum for H4H12164P (antibody, human IgG4, V domains shown, H4H: human IgG4 Fc with S108P hinge mutation) VH: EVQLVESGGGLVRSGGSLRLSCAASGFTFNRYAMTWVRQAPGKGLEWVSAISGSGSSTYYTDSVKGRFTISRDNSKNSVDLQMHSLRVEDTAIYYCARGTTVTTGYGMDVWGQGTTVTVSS VL: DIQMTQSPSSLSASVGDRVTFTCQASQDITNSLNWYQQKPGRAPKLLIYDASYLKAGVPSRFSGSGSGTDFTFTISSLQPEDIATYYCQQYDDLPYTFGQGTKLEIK : what is it? 2.4

Provenance of the data: patent US20170355757A1
